system.name: Sphingosine 1-phosphate receptor 3 (Homo sapiens)
measurement.description: human S1P3 receptor agonists, primary screen, cell-based, primary and confirmation, NFAT-BLA reporter (AID 373)
run.parameters: S1P3 NFAT-BLA reporter cells, agonism, FRET ratio, at 4.5 µM, active compounds read high, relative to 1 µM S1P, basal subtracted
The campaign covered roughly 60,000 compounds. About 60 (0.1%) were called active. This is one part of a sample in which actives are shown more often than they occur.
Examples of compounds with documented activation follow.
Respond numerically; units are % and should not be typed.

Worked examples follow.
compound | system.name | val
Cc1cc(C)cc(N(CC(=O)NCC2CCCO2)S(=O)(=O)c2c(C)noc2C)c1 (configuration not stated) | Sphingosine 1-phosphate receptor 3 (Homo sapiens) | -0.2
CN1CCN(C(=O)c2ccc(NS(=O)(=O)c3ccccc3)cc2)CC1 | Sphingosine 1-phosphate receptor 3 (Homo sapiens) | -0.2
CC1COC2C(O1)N(S(C)(=O)=O)CCN2S(C)(=O)=O (configuration not stated) | Sphingosine 1-phosphate receptor 3 (Homo sapiens) | -1.9

Exam item: Identify measured activation obtained with Sphingosine 1-phosphate receptor 3 (Homo sapiens) for COc1ncnc2sc3c(c12)CCCC3 .
Marked response: -0.3

Exam item: Quote Sphingosine 1-phosphate receptor 3 (Homo sapiens) activation for entry CC1(C)Oc2ccc(C(=O)N3CCOCC3)cc2N(CC(=O)Nc2ccccc2)C1=O .
Marked response: -0.1

Exam item: Return reported activation for target or system Sphingosine 1-phosphate receptor 3 (Homo sapiens), item OC(COc1ccc2ccccc2c1)CN1CCOCC1 (configuration not stated) .
Marked response: 0.6

Exam item: Report activation on Sphingosine 1-phosphate receptor 3 (Homo sapiens) for this entry: c1cc(-c2nn[nH]n2)ccc1CN1CCCCC1
Marked response: -0.2

Exam item: Jot down activation (Sphingosine 1-phosphate receptor 3 (Homo sapiens)) of O=C(O)CCN1C(=O)CC2(CCCCC2)C1=O .
Marked response: -0.4

All figures here come from PubChem BioAssay AID373.
